All figures here come from paper PMC6427912.

# Test system: B. subtilis
# Assay details: B. subtilis growth inhibition assay
# Assay type: cell-based, Bacillus subtilis
# Test settings: value in parentheses
Class True: Bs ED50 at least 200 µM. Class False: Bs ED50 below 200 µM.

As a guide, the following entries are already answered.
1) CC(C)CCCC(C)c1cnc(NCC(P(=O)(O)O)P(=O)(O)O)s1 (centres unmarked) ... True
2) CC(C)CCCC(C)CCOc1cc(NCC(P(=O)(O)O)P(=O)(O)O)ccn1 (centres unmarked) ... False
3) CCCCCCCCCCCc1ccc[n+](CC(P(=O)([O-])O)P(=O)(O)O)c1 (centres unmarked) ... False
4) CC(C)CCCC(C)CCOc1ccnc(NC(P(=O)(O)O)P(=O)(O)O)c1 (centres unmarked) ... True

Query :: Identify whether the reported Bs ED50 of the following molecule is 200 µM or greater: CC(C)CCOc1ccc[n+](CC(P(=O)([O-])O)P(=O)(O)O)c1 (centres unmarked)
Result :: False
